Each entry below lists one item and its recorded COX2 2 minutes pge2/pge2d4 area ratio Avg. LLE value.
Biological target: human recombinant COX2 (hCOX2)
Assay: LCMS-based COX2 enzymatic inhibition assay (PGE2 quantification)
Format: biochemical
Set-up: COX2 2 minutes pge2/pge2d4 area ratio Avg; other: 2 minutes; readout pge2/pge2d4 area ratio; average; COX2 2 minutes pge2/pge2d4 area ratio Avg; LLE; average LLE; COX2 2 minutes pge2 area (counts) Avg; readout pge2 area (counts); other: 2 min; "ovine COX2 (oCOX2), human recombinant COX2 (hCOX2)"
Details: 2 minutes; readout pge2/pge2d4 area ratio; average LLE
I'd appreciate a reply containing only the number, no unit.

Consider the worked cases shown below.
CS(=O)(=O)c1ccc(-c2cncc(OCc3ccsc3)n2)cc1 :: 4.3725
CS(=O)(=O)c1ccc(-c2cncc(SCc3ccno3)n2)cc1 :: 4.9351
C[C@@H](Oc1cccc(-c2ccc(S(C)(=O)=O)cc2)n1)c1cccs1 (single isomer, unassigned) :: 1.429
CS(=O)(=O)c1ccc(-c2ccc3c(n2)N(Cc2cccs2)C(=O)C3)cc1 :: 2.522
CS(=O)(=O)c1ccc(-c2nc(OCc3cccs3)ccc2F)cc1 :: 3.357
CS(=O)(=O)c1ccc(-c2cncc(NC3CCCCC3)n2)cc1 :: 3.95
CS(=O)(=O)c1ccc(-c2cc(C(F)(F)F)nc(Oc3ccc(F)cc3)n2)cc1 :: 2.661

Consider the compound shown here: COCc1ccc(-c2ccc(S(C)(=O)=O)cc2)nc1NCc1cccs1 What is its recorded COX2 2 minutes pge2/pge2d4 area ratio Avg. LLE?
2.767

Hey, just so you know, these numbers are from patent US20220348590A1.
